All values here come from patent US20110256127A1.

# target_or_test_system: T1, LRP6.E3-E4-Fc (human)
# T1 construct: also called LRP6.E3-4-Fc
# T1 sequence (chain, as listed by the source limits assumed): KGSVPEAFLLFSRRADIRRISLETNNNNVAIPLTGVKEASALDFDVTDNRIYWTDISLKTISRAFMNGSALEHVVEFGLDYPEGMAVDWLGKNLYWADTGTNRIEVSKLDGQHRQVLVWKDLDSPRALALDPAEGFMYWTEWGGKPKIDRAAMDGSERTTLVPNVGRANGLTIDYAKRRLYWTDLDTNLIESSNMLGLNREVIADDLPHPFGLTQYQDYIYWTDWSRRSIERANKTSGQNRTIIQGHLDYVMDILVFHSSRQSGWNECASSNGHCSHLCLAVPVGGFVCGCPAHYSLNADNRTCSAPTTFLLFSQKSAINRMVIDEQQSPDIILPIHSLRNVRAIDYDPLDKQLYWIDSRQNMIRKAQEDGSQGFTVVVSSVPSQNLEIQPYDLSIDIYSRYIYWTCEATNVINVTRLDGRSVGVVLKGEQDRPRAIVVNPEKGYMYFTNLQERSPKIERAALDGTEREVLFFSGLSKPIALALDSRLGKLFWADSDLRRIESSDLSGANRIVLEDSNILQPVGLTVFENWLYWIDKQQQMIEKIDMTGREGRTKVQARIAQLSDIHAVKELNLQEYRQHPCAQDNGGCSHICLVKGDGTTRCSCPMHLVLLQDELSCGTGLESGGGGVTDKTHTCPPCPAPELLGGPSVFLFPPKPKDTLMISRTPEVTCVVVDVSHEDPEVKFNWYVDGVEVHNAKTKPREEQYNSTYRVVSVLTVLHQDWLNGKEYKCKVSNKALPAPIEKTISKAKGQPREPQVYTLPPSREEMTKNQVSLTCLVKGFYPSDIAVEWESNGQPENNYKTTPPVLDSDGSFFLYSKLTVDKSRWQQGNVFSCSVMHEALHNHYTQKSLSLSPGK
# run_description: ELISA

binder: YW211.03 antibody (antibody, V domains shown) VH: EVQLVESGGGLVQPGGSLRLSCAASGFTFTGYWIHWVRQAPGKGLEWVGTISPAGGSTDYADSVKGRFTISADTSKNTAYLQMNSLRAEDTAVYYCARTDWRFHHAGEYAMDYWGQGTLVTVSS VL: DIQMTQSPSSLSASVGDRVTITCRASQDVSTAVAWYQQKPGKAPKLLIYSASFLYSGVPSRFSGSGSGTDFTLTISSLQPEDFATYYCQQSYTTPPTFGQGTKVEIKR
binding result: binds
--
binder: YW211.31 antibody (antibody, human IgG1, kappa, V domains shown, also called intact YW211.31 antibody) VH: EVQLVESGGGLVQPGGSLRLSCAASGFTFTSYYISWVRQAPGKGLEWVAEISPYSGSTYYADSVKGRFTISADTSKNTAYLQMNSLRAEDTAVYYCALRARPPIRLHPRGSVMDYWGQGTLVTVSS VL: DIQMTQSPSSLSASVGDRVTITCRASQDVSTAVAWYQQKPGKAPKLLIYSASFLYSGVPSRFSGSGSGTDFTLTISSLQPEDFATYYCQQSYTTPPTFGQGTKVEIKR
binding result: binds
--
binder: YW211.12 antibody (antibody, V domains shown) VH: EVQLVESGGGLVQPGGSLRLSCAASGFTFTGNDIHWVRQAPGKGLEWVGRIYPYGGYTDYADSVKGRFTISADTSKNTAYLQMNSLRAEDTAVYYCAKEVTYHLFDYWGQGTLVTVSS VL: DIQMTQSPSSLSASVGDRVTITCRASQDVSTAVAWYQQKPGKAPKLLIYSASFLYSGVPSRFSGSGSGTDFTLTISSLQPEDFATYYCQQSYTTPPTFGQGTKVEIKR
binding result: binds
